Target: T1, Aven TriRG peptide (human, UniProt Q9NQS1)
T1 chain: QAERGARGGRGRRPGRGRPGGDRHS
Test: fluorescence plate binding (immobilized peptide); K+-folded RNA; range given jointly for TriRG and TriRGme; RNA folded in 10 mM Tris-acetate pH 7.7, 200 mM K-acetate, 5 mM Mg-acetate (75 C 10 min, 21 C 5 min); peptide assay 1 h at room temperature, washes in this buffer; pull-down 100 nM RNA in cell lysate with 2 mg/ml heparin, 1 h on ice, beads 30 min at 4 C
Details: tags: N-terminal biotin; G4
measurement-name: Kd

The reported Kd of the binder GCUGCGGUGUGGAAGGAGUGGUCGGGUUGCGCAGCG (structured_RNA) [sc1 G4 (fluorescein)] was ~84.8 nM
